# MEASURED_ON: recombinant BRD4 BD1 (Homo sapiens, UniProt O60885)
# Construct: for recombinant BRD4 BD1 and BRD4 BD2 proteins
# ASSAY_NAME: Competitive fluorescence-polarization (FP) binding assay, BRD4 BD1; on IC50 (nM) BRD4 BD1: probe 1.5 nM
# CONDITIONS_USED: competitive FP assay; protein 10 nM, probe […]; read-out: IC50 (nM) BRD4 BD1
# label = criterion met if IC50 < 30 nM else criterion not met

COMPOUND	ASSIGNED_LABEL
COc1cc2c(cc1-c1c(C)noc1C)[nH]c1nc(C)nc(Nc3cnc4ccccn34)c12 [Cpd. No. 99]	criterion not met
COc1cc2c(cc1-c1c(C)noc1C)[nH]c1nc(C)nc(Nc3c(C)c(C)nn3C3CC3)c12 [Cpd. No. 188]	criterion met
COc1cc2c(cc1-c1c(C)noc1C)[nH]c1nc(C)nc(Nc3noc(C)c3C)c12 [Cpd. No. 222]	criterion not met
COc1cc2c(cc1-c1c(C)noc1C)[nH]c1nc(C)nc(Nc3cnn4ccccc34)c12 [Cpd. No. 14]	criterion met
COc1cc2c(cc1-c1c(C)noc1C)[nH]c1nc(C)nc(Nc3nn(C)c4cccnc34)c12 [Cpd. No. 123]	criterion not met
COc1cc2c(cc1-c1c(C)noc1C)[nH]c1nc(C)nc(Nc3cc(C)nn3C3CCCC3)c12 [Cpd. No. 118]	criterion met
COc1cc2c(cc1-c1c(C)noc1C)[nH]c1nc(C)nc(Nc3cc(C(F)(F)F)nn3C(C)(C)C)c12 [Cpd. No. 117]	criterion not met
COc1cc2c(cc1-c1c(C)noc1C)[nH]c1nc(C)nc(Nc3c(C)cnn3C3CC3)c12 [Cpd. No. 197]	criterion not met
COc1cc2c(cc1-c1c(C)noc1C)[nH]c1nc(C)nc(Nc3c(C)cnn3C(C)(C)C)c12 [Cpd. No. 196]	criterion met
COc1cc2c(cc1-c1c(C)noc1C)[nH]c1nc(C)nc(Nc3cccc4cccnc34)c12 [Cpd. No. 210]	criterion not met
COc1cc2c(cc1-c1c(C)noc1C)[nH]c1nc(C)nc(Oc3ccnc4ccccc34)c12 [Cpd. No. 104]	criterion not met
COc1cc2c(cc1-c1c(C)noc1C)[nH]c1nc(C)nc(Nc3c(-c4ccccc4)noc3C)c12 [Cpd. No. 98]	criterion not met
COc1ccc2c(Nc3nc(C)nc4[nH]c5cc(-c6c(C)noc6C)c(OC)cc5c34)nn(C)c2c1 [Cpd. No. 19]	criterion not met
COc1cc2c(cc1-c1c(C)noc1C)[nH]c1nc(C)nc(Nc3cc(C)ccn3)c12 [Cpd. No. 110]	criterion not met
CCn1nc(C(F)(F)F)cc1Nc1nc(C)nc2[nH]c3cc(-c4c(C)noc4C)c(OC)cc3c12 [Cpd. No. 146]	criterion met
COc1cc2c(cc1-c1c(C)noc1C)[nH]c1nc(C)nc(Nc3c(C4CC4)c(C)nn3C)c12 [Cpd. No. 140]	criterion not met
COc1cc2c(cc1-c1c(C)noc1C)[nH]c1nc(C)nc(Nc3ccnn3C(C)C)c12 [Cpd. No. 175]	criterion met
COc1cc2c(cc1-c1c(C)noc1C)[nH]c1nc(C)nc(Nc3c(C)noc3C)c12 [Cpd. No. 215]	criterion not met
COc1cc2c(cc1-c1c(C)noc1C)[nH]c1nc(C)nc(Nc3ccnc(C)c3)c12 [Cpd. No. 248]	criterion not met
COc1cc2c(cc1-c1c(C)noc1C)[nH]c1nc(C)nc(Nc3ccc(OC)c4ccccc34)c12 [Cpd. No. 100]	criterion not met
COc1cc2c(cc1-c1c(C)noc1C)[nH]c1nc(C)nc(Nc3nn(C)c4c(F)cccc34)c12 [Cpd. No. 129]	criterion not met
COc1cc2c(cc1-c1c(C)noc1C)[nH]c1nc(C)nc(Oc3cccc(Cl)c3)c12 [Cpd. No. 95]	criterion not met
COc1cc2c(cc1-c1c(C)noc1C)[nH]c1nc(C)nc(Nc3c4c(nn3C)CCCC4)c12 [Cpd. No. 125]	criterion met
COc1cc2c(cc1-c1c(C)noc1C)[nH]c1nc(C)nc(Nc3cc(C4CC4)nn3C3CC3)c12 [Cpd. No. 152]	criterion met
COc1cc2c(cc1-c1c(C)noc1C)[nH]c1nc(C)nc(Nc3onc(C)c3C)c12 [Cpd. No. 219]	criterion not met
COc1cc2c(cc1-c1c(C)noc1C)[nH]c1nc(C)nc(Nc3nn(C)c4ncccc34)c12 [Cpd. No. 10]	criterion met
COc1cc2c(cc1-c1c(C)noc1C)[nH]c1nc(C)nc(Nc3cnn4c3CCCC4)c12 [Cpd. No. 139]	criterion met
COc1cc2c(cc1-c1c(C)noc1C)[nH]c1nc(C)nc(Nc3ccnn3C3CCCC3)c12 [Cpd. No. 178]	criterion met
COc1cc2c(cc1-c1c(C)noc1C)[nH]c1nc(C)nc(Nc3nn(C)cc3C)c12 [Cpd. No. 77]	criterion not met
COc1cc2c(cc1-c1c(C)noc1C)[nH]c1nc(C)nc(Nc3nn(CCO)c4ccccc34)c12 [Cpd. No. 131]	criterion met
COc1cc2c(cc1-c1c(C)noc1C)[nH]c1nc(N)nc(Nc3cc(C4CC4)nn3C)c12 [Cpd. No. 206]	criterion met

* * *

# MEASURED_ON: recombinant BRD4 BD1 (Homo sapiens, UniProt O60885)
# Construct: for recombinant BRD4 BD1 and BRD4 BD2 proteins
# ASSAY_NAME: Competitive fluorescence-polarization (FP) binding assay, BRD4 BD1; on IC50 (nM) BRD4 BD1: probe 1.5 nM
# CONDITIONS_USED: competitive FP assay; protein 10 nM, probe […]; read-out: IC50 (nM) BRD4 BD1
# if measured IC50 < 200 nM: yes  # else: no

COMPOUND_SMILES	ASSIGNED_LABEL
COc1cc2c(cc1-c1c(C)noc1C)[nH]c1nc(C)nc(Nc3c4c(nn3C)CCC4)c12	yes
COc1cc2c(cc1-c1c(C)noc1C)[nH]c1nc(C)nc(Nc3n[nH]c(C)c3-c3ccccc3)c12	no
COc1cc2c(cc1-c1c(C)noc1C)[nH]c1nc(C)nc(Nc3cccc4[nH]ccc34)c12	yes
CCn1ncc(C)c1Nc1nc(C)nc2[nH]c3cc(-c4c(C)noc4C)c(OC)cc3c12	yes
COc1cc2c(cc1-c1c(C)noc1C)[nH]c1nc(C)nc(Nc3cn(C)nc3C(F)(F)F)c12	yes
COc1cc2c(cc1-c1c(C)noc1C)[nH]c1nc(C)nc(Nc3c[nH]c4ncccc34)c12	yes
COc1cc2c(cc1-c1c(C)noc1C)[nH]c1nc(C)nc(Sc3cccc(C(C)(C)C)c3)c12	no

* * *

# MEASURED_ON: recombinant BRD4 BD1 (Homo sapiens, UniProt O60885)
# Construct: for recombinant BRD4 BD1 and BRD4 BD2 proteins
# ASSAY_NAME: Competitive fluorescence-polarization (FP) binding assay, BRD4 BD1
# CONDITIONS_USED: FP competitive binding, BRD4 BD1; read-out: Binding affinities (FP) BRD4BD1 Ki
pKi: −log10 of the molar value.
Heads up, the class ranges for pKi are lower (below 7), middle (7 to below 8), upper (8 or more)

COMPOUND_SMILES	ASSIGNED_LABEL
COc1nc2c(cc1-c1c(C)noc1C)[nH]c1nc(C)nc(Nc3cccc(C)c3)c12	lower
COc1nc2c(cc1-c1c(C)noc1C)[nH]c1nc(C)nc(N(C)c3cc(C4CC4)nn3C)c12	upper
COc1cc2c(cc1-c1c(C)noc1C)[nH]c1nc(C)nc(Nc3cc(C4CC4)nn3C3CCOCC3)c12	upper
COc1c(-c2c(C)noc2C)cc2[nH]c3nc(C)nc(N(C)c4cc(C5CC5)nn4C)c3c2c1F	middle
COc1cc2c([nH]c3nc(C)nc(N(C)c4cc(C5CC5)nn4C)c32)c(F)c1-c1c(C)noc1C	upper
COc1cc2c(cc1-c1c(C)noc1C)[nH]c1ccnc(Nc3c4c(nn3C(C)C)CCC4)c12	upper
COc1nc2c(cc1-c1c(C)noc1C)[nH]c1nc(C)nc(Nc3nn(C)c4ncccc34)c12	lower
COc1cc2c(cc1-c1c(C)noc1C)[nH]c1nc(CS(C)(=O)=O)nc(Nc3cc(C4CC4)nn3C)c12	upper
CCn1nc(C2CC2)cc1Nc1nc(N)nc2[nH]c3cc(-c4c(C)noc4C)c(OC)cc3c12	upper
CCn1nc(C2CC2)cc1Nc1nccc2[nH]c3cc(-c4c(C)noc4C)c(OC)cc3c12	upper
COCCc1nc(Nc2cc(C3CC3)nn2C)c2c(n1)[nH]c1cc(-c3c(C)noc3C)c(OC)cc12	upper
COc1nc2c(cc1-c1c(C)noc1C)[nH]c1nc(C)nc(N(C)c3cccc(C)c3)c12	middle

* * *

Collected pIC50 values appear next to each entry.
# MEASURED_ON: recombinant BRD4 BD2 (Homo sapiens, UniProt O60885)
# Construct: for recombinant BRD4 BD1 and BRD4 BD2 proteins
# ASSAY_NAME: Competitive fluorescence-polarization (FP) binding assay, BRD4 BD2
# CONDITIONS_USED: FP competitive binding, BRD4 BD2; read-out: Binding affinities (FP) BRD4BD2 IC50
pIC50: −log10 of the molar value.

COMPOUND_SMILES	pIC50
COc1nc2c(cc1-c1c(C)noc1C)[nH]c1nc(C)nc(Nc3cc(C4CC4)nn3C)c12	6.67
CCn1nc(C2CC2)cc1Nc1nc(N)nc2[nH]c3cc(-c4c(C)noc4C)c(OC)cc3c12	8.35
COCCOCc1nc(Nc2cc(C3CC3)nn2C)c2c(n1)[nH]c1cc(-c3c(C)noc3C)c(OC)cc12	8.80
COCCc1nc(Nc2cc(C3CC3)nn2C)c2c(n1)[nH]c1cc(-c3c(C)noc3C)c(OC)cc12	8.85
COc1cc2c([nH]c3nc(C)nc(Nc4cc(C5CC5)nn4C)c32)c(F)c1-c1c(C)noc1C	7.74
COc1nc2c(cc1-c1c(C)noc1C)[nH]c1nc(C)nc(Nc3cc(C(C)(C)C)nn3C)c12	6.01
COc1cc2c(cc1-c1c(C)noc1C)[nH]c1cncc(Nc3cc(C4CC4)nn3C)c12	8.23
COc1cc2c(cc1-c1c(C)noc1C)[nH]c1ccnc(Nc3c4c(nn3C(C)C)CCC4)c12	7.73
COc1cc2c(cc1-c1c(C)noc1C)[nH]c1nc(N)nc(Nc3cc(C4CC4)nn3C3CC3)c12	8.31
COc1nc2c(cc1-c1c(C)noc1C)[nH]c1nc(C)nc(N(C)c3nn(C)c4ncccc34)c12	6.97
COc1cc2c(cc1-c1c(C)noc1C)[nH]c1nc(N)nc(Nc3c4c(nn3C(C)C)CCC4)c12	8.64
COc1cc2c([nH]c3ccnc(Nc4cc(C5CC5)nn4C)c32)c(F)c1-c1c(C)noc1C	7.40
COc1nc2c(cc1-c1c(C)noc1C)[nH]c1nc(C)nc(Nc3cc(C)nn3C(C)(C)C)c12	6.50
COc1nc2c(cc1-c1c(C)noc1C)[nH]c1nc(C)nc(N(C)c3c(C)cnn3C(C)C)c12	7.04
COc1nc2c(cc1-c1c(C)noc1C)[nH]c1nc(C)nc(N(C)c3cccc(C)c3)c12	6.86
COc1cc2c([nH]c3nc(C)nc(N(C)c4cc(C5CC5)nn4C)c32)c(F)c1-c1c(C)noc1C	7.60
COc1nc2c(cc1-c1c(C)noc1C)[nH]c1nc(C)nc(N(C)C3CCCC3)c12	6.10

Reference source for all entries: patent US9580430B2
